Test system: Haemophilus influenzae Q1
MEASUREMENT_DESCRIPTION: MIC against human bacteria in vitro
Assay type: cell-based
SETUP_CONDITIONS: Haemophilus influenzae Q1; 5% chocolated horse blood agar, 18 hours; read-out: MIC
MEASUREMENT_KIND: MIC
The answer consists of two parts: a number and, after it, its unit.

Examples with answers:
| SMILES | MIC |
| --- | --- |
| COC(=O)c1ccc(-c2cnc(/C=C(\C)C[C@@H]3OC[C@H](C[C@@H]4O[C@H]4[C@@H](C)[C@H](C)O)[C@@H](O)[C@H]3O)o2)cc1 | 2 µg/mL |
| C/C(=C\c1ncc(-c2ccccc2)o1)C[C@@H]1OC[C@H](C[C@@H]2O[C@H]2[C@@H](C)[C@H](C)O)[C@@H](O)[C@H]1O | 1 µg/mL |
| C/C(=C\c1ncc(-c2ccc(CO)cc2)o1)C[C@@H]1OC[C@H](C[C@@H]2O[C@H]2[C@@H](C)[C@H](C)O)[C@@H](O)[C@H]1O | 0.5 µg/mL |
| C/C(=C\c1ncc(-c2ccc(C=O)cc2)o1)C[C@@H]1OC[C@H](C[C@@H]2O[C@H]2[C@@H](C)[C@H](C)O)[C@@H](O)[C@H]1O | 4 µg/mL |

Attention now shifts to the item below.
Given the compound C/C(=C\c1ncc(CCCCCCCC(=O)O)o1)C[C@@H]1OC[C@H](C[C@@H]2O[C@H]2[C@@H](C)[C@H](C)O)[C@@H](O)[C@H]1O , what is its reported MIC?
1 µg/mL
